# Experiment Summary: Pharmacokinetics after single oral dose in rats
# Type: in vivo, Wistar rat
# Conditions: male, Wistar, rat, plasma, po, 30 mg/kg, mean of rats, oral 30 mg/kg, time 5 h
Metric Name: concentration at 5 h (ng/mL)
Give your result in ng/mL as a bare value.

{"columns": ["Smiles Notation", "Measurement Unit", "concentration at 5 h"],
 "data": [
  ["O=C(Nc1ccc(CN2CCOCC2)cc1)c1n[nH]cc1Nc1ncnc2sccc12", "ng/mL", 122]
]}

Q) Need concentration at 5 h, item "CN1CCN(Cc2ccc(NC(=O)c3n[nH]cc3Nc3ncnc4sccc34)cc2)CC1"
A) 164

Origin of the recorded values: patent US9550792B2
